Test: S. cerevisiae RM11-1a growth modifiers, primary screen, strain RM11-1a, OD600, basal, 24 h (AID 1177);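 note: cultures grown under basal conditions with no added stressor; test concentration not given here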
Conditions: OD600, 24 h, higher = more signal, called active from +8 up or from −8 down
Activity calls are given as the source filed them.
Task for the reader: assign each of the following compounds its reported z-score.

# query: z-score of entry CCOC(=O)NN=C1C[C@@H](O)[C@@H](O)[C@@H]2[C@@H]3C(=O)N(C(C)(C)C)C(=O)[C@@H]3CC[C@H]12 0.179 (inactive)

For CC(C)CON=C1C[C@@H](O)[C@@H](O)[C@@H]2[C@@H]3C(=O)N(c4ccc(F)cc4F)C(=O)[C@@H]3CC[C@H]12 then? -0.554 (inactive)

For COc1ccc(O[C@H]2C=C[C@@H](c3ccccc3)O[C@@H]2CON=C(C)CCC(=O)OC[C@H]2O[C@H](c3ccccc3)C=C[C@@H]2Oc2ccc(OC)cc2)cc1 then? 1.26 (inactive)

For CCOC(=O)[C@H](CC(C)C)NC(=O)CCC1CC(OC(=O)NCc2cccc3ccccc23)CC2(CCCC(COC(=O)NCCC(C)C)O2)O1 (some centres not stated) then? -3.91 (inactive)

Report z-score for each item below.
1. CO[C@H]1COC(=O)[C@@H](Cc2ccccc2)NC(=O)[C@@H](C)COC(=O)CCC[C@@H]1C
2. CCOC(=O)[C@H](CC(C)C)NC(=O)CCC1CC(OC(=O)NCc2ccc3c(c2)OCO3)CC2(CCCC(COC(=O)NCC(c3ccccc3)c3ccccc3)O2)O1 (some centres not stated)
3. CCOC(=O)[C@H](CC(C)C)NC(=O)CCC1CC(OC(=O)NCCc2ccc(F)cc2)CC2(CCCC(COC(=O)NCC(c3ccccc3)c3ccccc3)O2)O1 (some centres not stated)
4. CCc1cc2c(nc1CC)CCN(CCC(C)=NO[C@H](C)c1cn([C@@H]3COC[C@H]3O)nn1)C2
5. COC(=O)CC=C[C@@H](C)[C@@H](C=NO[C@@H](C)c1cn([C@H](CO)Cc2ccccc2)nn1)NS(=O)(=O)c1ccc(C)cc1
6. O=C1OCCC=C1C(O)CCc1ccccc1 (configuration not stated)
7. CC(C)=CCCC(C)=CCON=C1C[C@@H](O)[C@@H](O)[C@@H]2[C@@H]3C(=O)N(Cc4ccccc4)C(=O)[C@@H]3CC[C@@H]12
8. CC(CCN1CCCc2nc(C)c(C)cc21)=NOC(C)CN1CCCCc2nc(C)c(C)cc21 (configuration not stated)

-0.726 (inactive)
0.786 (inactive)
0.126 (inactive)
0.431 (inactive)
-2.06 (inactive)
-0.415 (inactive)
0.581 (inactive)
1.02 (inactive)

Report z-score for each item below.
1. CO[C@H]1COC(=O)CC=C[C@@H](C)[C@H](OC)COC(=O)CCC[C@@H]1C
2. COC(=O)CC=C[C@@H](C)[C@@H](C=NO[C@H](C)c1cn([C@H](CO)Cc2ccccc2)nn1)OC
3. CC(C)(C)N1C(=O)[C@H]2[C@H]3[C@H](O)C=CC(=O)[C@@H]3CC[C@H]2C1=O
4. CC(C)=CCCC(C)=CCON=C1C[C@@H](O)[C@@H](O)[C@@H]2[C@@H]3C(=O)N(C[C@@H]4CCCO4)C(=O)[C@@H]3CC[C@H]12
5. CCOC(=O)C1=NO[C@]2(C=C(Br)C3(OCCCO3)[C@H]3O[C@H]32)C1

-1.45 (inactive)
-0.212 (inactive)
0.846 (inactive)
1.8 (inactive)
-0.847 (inactive)
